Provenance of the data: patent US20040180051A1

study_system: T1, human tissue factor (human TF) on human bladder carcinoma cells J82 (human, UniProt P13726 33-295)
T1 construct: whole, on cells; Target of the cell ELISA; also called the antigen
protocol_notes: cell ELISA on fixed J82 cells;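 also: measures antigen binding in a cell ELISA on J82 cells grown one day in 96-well plates and fixed with 4% paraformaldehyde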

binder	binding result
humanized L chain version “a” combined with a chimeric H chain (antibody, V domains shown, expressed in COS-7) VH: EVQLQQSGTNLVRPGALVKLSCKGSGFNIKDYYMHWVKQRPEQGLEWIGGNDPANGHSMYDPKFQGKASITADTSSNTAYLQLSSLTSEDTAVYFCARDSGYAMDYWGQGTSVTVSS VL: DIQMTQSPSSLSASVGDRVTITCKASQDIKSFLSWYQQKPGKAPKLLIYYATSLADGVPSRFSGSGSGTDFTLTISSLQPEDFATYYCLQHGESPYTFGGGTKVEIK	binds
humanized L chain version “b” combined with a chimeric H chain (antibody, V domains shown, expressed in COS-7; also called ch-b) VH: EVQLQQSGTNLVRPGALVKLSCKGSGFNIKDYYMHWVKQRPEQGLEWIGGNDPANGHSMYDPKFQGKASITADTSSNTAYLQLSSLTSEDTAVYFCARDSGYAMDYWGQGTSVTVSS VL: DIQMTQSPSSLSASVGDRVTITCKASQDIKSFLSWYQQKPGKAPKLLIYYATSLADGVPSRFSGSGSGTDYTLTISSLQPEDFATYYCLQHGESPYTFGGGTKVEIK	binds
humanized H chain version “j” combined with a chimeric L chain (antibody, V domains shown, expressed in COS-7; also called j-ch) VH: QVQLLESGAVLARPGTSVKISCKASGFNIKDYYMHWVKQRPGQGLEWIGGNDPANGHSMYDPKFQGRVTFTADTSANTAYMELRSLRSADTAVYYCARDSGYAMDYWGQGTLVTVSS VL: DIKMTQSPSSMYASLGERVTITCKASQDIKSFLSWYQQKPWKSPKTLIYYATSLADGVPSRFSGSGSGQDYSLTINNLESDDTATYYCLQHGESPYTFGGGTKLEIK	binds
